# System: OVCAR-5
# test_protocol: NCI tumour cell line growth inhibition, 48 h
Active and inactive are the calls of the source. Cut-off read from the data, not from the text of the source: active = GI50 up to about 1.1 µM and inactive = higher.
Listing: GI50 of selected molecules

Consider the reported GI50 for these molecules:
molecule	result
CCCCCCCCC/C=C1/CC(CO)(COC(=O)CC(C(C)C)C(C)C)OC1=O (stereo not given)	12.1 µM (inactive)
COc1c(O)cc2c(c1O)C(=O)/C(=C/c1ccc(O)cc1)CO2	29 µM (inactive)
CCC1(C(=O)OC(C)(C)C)OC12C(C)CCCC2C (stereo not given)	> 100 µM (inactive)
O=C(Nc1ccc(S(=O)(=O)/N=c2\ncccn2C(=O)C(C(F)(F)F)C(F)(F)F)cc1)C(C(F)(F)F)C(F)(F)F	> 100 µM (inactive)
Cc1ccccc1C1OC(=O)c2ccc3ccccc3c21 (stereo not given)	8.57 µM (inactive)

**Q:** Which GI50 is listed for O=C(Nc1c(Cl)cc([N+](=O)[O-])cc1Cl)C(=O)C(C1OC(=O)c2ccccc21)[N+](=O)[O-] (stereo not given) ?
**A:** > 100 µM (inactive)

**Q:** // same read-out, input: O=C(O)c1ccc(NNC(=O)c2cccc3c(=O)c4ccccc4[nH]c23)cc1
**A:** > 100 µM (inactive)

**Q:** // same read-out, input: Cc1ccc(C2=Nn3c(nc4sc(-c5ccccc5)cc4c3=O)SC2)cc1
**A:** > 100 µM (inactive)

**Q:** // same read-out, input: N#C/C(=C\c1ccc([N+](=O)[O-])o1)c1n[nH]c(Cc2ccccc2)n1
**A:** 1.64 µM (inactive)

**Q:** // same read-out, input: COC(=O)C1=C(O)C(C(=O)OC)C2CC(=O)CC1C2(C)C (stereo not given)
**A:** > 100 µM (inactive)

###

# Tested on: M14
# test_protocol: NCI tumour cell line growth inhibition, 48 h
Activity calls are given as the source filed them. No stated cut-off is given here; in the data, active = GI50 up to about 1.1 µM and inactive = higher.
value_type: GI50

Consider the reported GI50 for these compounds:
compound	GI50
O=C(/C=C/c1ccc(O)c(O)c1)OC1C[C@@](O)(C(=O)O)C[C@@H](O)[C@H]1OC(=O)/C=C/c1ccc(O)c(O)c1 (stereo partly specified)	> 100 µM (inactive)
CCC1(C(=O)OC(C)(C)C)OC12C(C)CCCC2C (stereo unspecified)	41.2 µM (inactive)
CC(=O)OC12c3ccccc3C1CCCC21OCCCO1 (stereo unspecified)	> 100 µM (inactive)
OC1(c2ccccc2)CSC2=Nc3ccccc3C3CCN1N23 (stereo unspecified)	21.9 µM (inactive)
CC1=C(C(=O)N(C(C)C)C(C)C)CC(C(=O)N(C(C)C)C(C)C)=C(C)N1	> 100 µM (inactive)

Moving on to another compound below.
**Q:** Which GI50 is listed for Cc1c2ccccc2cc2ccc3oc([N+](=O)[O-])cc3c12 ?
**A:** 4.46 µM (inactive)

###

# Test system: RPMI-8226
# test_protocol: NCI tumour cell line growth inhibition, 48 h
Active and inactive are the calls of the source. No stated cut-off is given here; in the data, active = GI50 up to about 1.1 µM and inactive = higher.
// allowed return values: label 1 = active, label 0 = inactive

**Q:** Please state the recorded outcome for this compound: C[n+]1c2ccccc2c(NC(CCC(N)=O)C(=O)O)c2ccccc21 (centres undefined)
**A:** label 0

**Q:** // same read-out, input: O=C(CSc1nc2ccc(I)cc2c(=O)n1Cc1ccccc1)NNC(=S)Nc1ccccc1
**A:** label 0

**Q:** // same read-out, input: CCc1cc2c(O)c(c1)Cc1cc(CC)cc(c1O)Cc1cc(CC)cc(c1O)Cc1cc(CC)cc(c1O)Cc1cc(CC)cc(c1O)Cc1cc(CC)cc(c1O)Cc1cc(CC)cc(c1O)C2
**A:** label 0

**Q:** // same read-out, input: CCOC(=O)Cn1c2ccccc2c(=O)c2cc(C)c(C)c(C#N)c21
**A:** label 0

**Q:** // same read-out, input: N=C(N)NS(=O)(=O)c1ccc(NC(=O)c2cccc3c(O)c4ccccc4nc23)cc1
**A:** label 0

###

# System: OVCAR-8
# test_protocol: NCI tumour cell line growth inhibition, 48 h
Activity calls are given as the source filed them. Cut-off read from the data, not from the text of the source: active = GI50 up to about 1.1 µM and inactive = higher.
Listing: GI50 of selected compounds

Consider the reported GI50 for these compounds:
compound	GI50
CC(=O)OCC1OC(On2ccccc2=S)C(OC(C)=O)C(OC(C)=O)C1OC(C)=O (stereo not given)	> 100 µM (inactive)
O=C(/C=C/c1ccc(O)c(O)c1)OC1C[C@@](O)(C(=O)O)C[C@@H](O)[C@H]1OC(=O)/C=C/c1ccc(O)c(O)c1 (stereo not given in full)	> 100 µM (inactive)
Nc1ncnc2c1ccn2COC(CO)CO	> 100 µM (inactive)
O=[N+]([O-])c1cc2[nH]nnc2c2nonc12	21.1 µM (inactive)
O=C1C(NCCc2ccc(O)c([N+](=O)[O-])c2)=CC(=O)c2[nH]cnc21	25 µM (inactive)

**Q:** Which GI50 is listed for O=C(C/C(=N\NC(=O)C[n+]1ccccc1)C(=O)Nc1nc2ccc([N+](=O)[O-])cc2s1)CC(c1ccccc1)c1c(O)c2ccccc2oc1=O (stereo not given) ?
**A:** > 100 µM (inactive)

**Q:** // same read-out, input: CCOC(=O)NC1CC2CCC1(OC)C=C2C (stereo not given)
**A:** > 100 µM (inactive)

**Q:** // same read-out, input: COc1cc2oc(=O)cc(C)c2c(OC)c1OC
**A:** > 100 µM (inactive)

**Q:** // same read-out, input: CN(C)CCCNC(=O)c1cn2c(ccc3sc4ccccc4c(=O)c32)n1
**A:** 4.85 µM (inactive)

**Q:** // same read-out, input: O=C(Nc1nc(C23CC4CC(CC(C4)C2)C3)cs1)c1cc2ccccc2oc1=O
**A:** > 100 µM (inactive)

###

# Test system: SK-OV-3
# test_protocol: NCI tumour cell line growth inhibition, 48 h
Activity calls are given as the source filed them. No stated cut-off is given here; in the data, active = GI50 up to about 1.1 µM and inactive = higher.
value_type: GI50

Consider the reported GI50 for these compounds:
compound	value_type	result
O=C(OCC1CCCN2CCCCC12)c1cccnc1 (stereo not given)	GI50	> 100 µM (inactive)
N/C(=N\c1cccc(Cl)c1)c1ccccc1N	GI50	> 100 µM (inactive)
Cc1ccc2c(c1)C(=O)C1(C2)Cc2cccc(C)c2C1=O (stereo not given)	GI50	> 100 µM (inactive)
O=C(O)c1ccc(NNC(=O)c2cccc3c(=O)c4ccccc4[nH]c23)cc1	GI50	> 100 µM (inactive)

Moving on to another compound below.
**Q:** Which GI50 is listed for CCc1cc2c(c3c1CCCC3)CC1(Cc3ccc(C(=O)OC)cc3C1)C2 (stereo not given) ?
**A:** > 100 µM (inactive)

###

# System: A498
# test_protocol: NCI tumour cell line growth inhibition, 48 h
Calls of active or inactive are those of the source. Cut-off read from the data, not from the text of the source: active = GI50 up to about 1.1 µM and inactive = higher.
// allowed return values: t (active), f (inactive)

**Q:** Please state the recorded outcome for this compound: CN(C)CCn1c(=O)c2ccc3c4c(nn3CCN(C)C)c3cc(N)ccc3n(c1=O)c24
**A:** t

**Q:** // same read-out, input: N#CC(C(=O)C(=O)Nc1ccc(Cl)cc1)c1ccccc1 (stereo unspecified)
**A:** f

**Q:** // same read-out, input: CCNC(C)Cc1ccccc1 (stereo unspecified)
**A:** f

**Q:** // same read-out, input: CSC(=S)OC1CC(n2cnc3c(NC(=O)c4ccccc4)ncnc32)OC1CO[Si](C)(C)C(C)(C)C (stereo unspecified)
**A:** f

**Q:** // same read-out, input: CC(C)(C)C1=CC(=N/N=c2\scc(-c3ccccc3)n2Cc2ccccc2)C=C(C(C)(C)C)C1=O
**A:** f

###

Listing: GI50 of selected compounds
# Tested on: DMS-114
# test_protocol: NCI tumour cell line growth inhibition, 48 h
The source made the active and inactive calls. Rule as the data show it: active = GI50 up to about 1.1 µM and inactive = higher.

compound	GI50
COc1ccc(/C=N/n2cnc3c(c2=O)S/C(=C2/SC(=S)N(c4ccc(C)cc4)C2=O)N3c2ccccc2)cc1	74.5 µM (inactive)
CC1=C2O[B-](c3ccccc3)(c3ccccc3)[O+]=C2C=CN1	38.7 µM (inactive)

**Q:** Which GI50 is listed for CC(=O)OC12c3ccccc3C1CCCC21OCCCO1 (centres undefined) ?
**A:** > 100 µM (inactive)

**Q:** // same read-out, input: COC(=O)Cc1nc2ccccc2o1
**A:** 36.1 µM (inactive)

**Q:** // same read-out, input: N=C(N)NS(=O)(=O)c1ccc(NC(=O)c2cccc3c(Nc4ccc(S(N)(=O)=O)cc4)c4ccccc4nc23)cc1
**A:** > 100 µM (inactive)

**Q:** // same read-out, input: NC(CNc1ccc(O)cc1)C(=O)O (centres undefined)
**A:** > 100 µM (inactive)

**Q:** // same read-out, input: Cc1ccc(S(=O)(=O)NCC2CCCCC2=O)cc1 (centres undefined)
**A:** 51.9 µM (inactive)

**Q:** // same read-out, input: COc1ccc2c(c1)CC[C@@H]1C2CC[C@](C)(C#N)C1CC#N (some centres undefined)
**A:** > 100 µM (inactive)

**Q:** // same read-out, input: Cc1noc(/N=C2\C=C(Nc3onc(C)c3C)C(=O)c3ccccc32)c1C
**A:** 15.3 µM (inactive)

Reference source: ChEMBL document CHEMBL1201862
